Biological target: Dihydrofolate reductase (Homo sapiens)
Sequence (P00374 whole entry): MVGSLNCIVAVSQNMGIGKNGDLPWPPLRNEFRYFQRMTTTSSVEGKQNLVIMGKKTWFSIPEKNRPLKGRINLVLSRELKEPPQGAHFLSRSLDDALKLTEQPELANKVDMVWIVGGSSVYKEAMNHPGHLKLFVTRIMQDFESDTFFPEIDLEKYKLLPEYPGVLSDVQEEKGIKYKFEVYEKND
Value Type: Ki (nM)
Give the value, in units of nM, as a plain number.

Examples with their reported Ki follow.
Chemical String	Ki, nM
CCc1nc(N)nc(N)c1Cc1cccc(-c2cccc(C(=O)O)c2)c1	108
CCc1nc(N)nc(N)c1Cc1cccc(-c2ccc(C(=O)O)cc2)c1.Cl.Cl	22

Q: Fill in the blank: the reported Ki of CCc1nc(N)nc(N)c1Cc1ccc(-c2cccc(C(=O)OC)c2)cc1.Cl is ____.
Ans: 140
